# Measured on: Shiga toxin 2 (Escherichia coli O157:H7) (UniProt P09385+P09386)
# Assay: E. coli 0.157:H7 Shiga Toxin SOP - stx2 screening assay
# Format: functional
# Set-up: scale not given: direction of the effect not stated beside the values
# Experimental setup: 30 µM
// reported Percent Effect per item
Number plus unit, in that order.

Prompt: State its Percent Effect on Shiga toxin 2 (Escherichia coli O157:H7) (UniProt P09385+P09386): "O=C(CCc1nccs1)N1CCN(c2ccc(Br)cn2)CC1"
Response: 23.4%

Prompt: Lookup: Percent Effect / Shiga toxin 2 (Escherichia coli O157:H7) (UniProt P09385+P09386) / CCc1noc(C(C)N2CCNCC2)n1 (centres undefined)
Response: 6.76%

Prompt: Requested read-out Percent Effect, target or system Shiga toxin 2 (Escherichia coli O157:H7) (UniProt P09385+P09386), entry "Cc1nccc(-c2cccc(NCC(=O)N3CCc4sccc4C3)c2)n1"
Response: 8.31%
